System: mHTT protein
measurement-protocol: mHTT protein assay (2B7-MW1, Mesoscale Discovery)
Format: cell-based, human
test-settings: GM04724 (CAG 70/20) Huntington's disease patient lymphoblast cells, 48 hours, 2B7-MW1 MSD; read-out: HTT Potency - Protein EC50 mHTT (average)
pEC50: −log10 of the molar value.
parameter: pEC50

Known results for molecules:
{"molecule": "Cc1ccc(-c2ccc(-c3ccc(O[C@@H]4C[C@H]5CCC[C@H](N5)[C@@H]4F)nn3)c(O)c2)s1 (single isomer, unassigned)", "test-result": "6.30 to 7.00"}
{"molecule": "Oc1cc(-c2nnco2)c(F)cc1-c1ccc(O[C@H]2C[C@@H]3CCC[C@@H](N3)[C@H]2F)nn1 (single isomer, unassigned)", "test-result": "7.00 to 7.29"}
{"molecule": "Oc1cc(-c2cn[nH]c2)c(F)cc1-c1ccc(O[C@@H]2C[C@H]3CCC[C@H](N3)[C@@H]2F)nn1 (single isomer, unassigned)", "test-result": "7.82 to 11.00"}
{"molecule": "Cn1ccc2cc(-c3ccc(O[C@@H]4C[C@@]5(C)CCC[C@](C)(N5)[C@@H]4F)nn3)c(O)cc2c1=O (single isomer, unassigned)", "test-result": "7.82 to 11.00"}
{"molecule": "Cc1cnc(-c2ccc(-c3ccc(O[C@H]4C[C@@H]5CCC[C@@H](N5)[C@H]4F)nn3)c(O)c2)cn1 (single isomer, unassigned)", "test-result": "6.30 to 7.00"}
{"molecule": "Oc1cc(-n2ccnc2)ccc1-c1ccc(O[C@H]2C[C@@H]3CC[C@@H](N3)[C@H]2F)nn1 (single isomer, unassigned)", "test-result": "7.00 to 7.29"}
{"molecule": "Cn1cc(-c2cc(O)c(-c3ccc(O[C@H]4C[C@@H]5CCC[C@@H](N5)[C@H]4F)nn3)cc2Cl)cn1 (single isomer, unassigned)", "test-result": "7.00 to 7.29"}
{"molecule": "O=c1cc(-c2ccc(-c3ccc(O[C@H]4C[C@@H]5CCC[C@@H](N5)[C@H]4F)nn3)c(O)c2)cc[nH]1 (single isomer, unassigned)", "test-result": "6.30 to 7.00"}
{"molecule": "Cn1ccc2cc(O)c(-c3ccc(O[C@@H]4C[C@@]5(C)CC[C@](C)(N5)[C@@H]4F)nn3)cc2c1=O (single isomer, unassigned)", "test-result": "7.82 to 11.00"}
{"molecule": "C[C@]12CC[C@](C)(N1)[C@H](F)[C@H](Oc1ccc(-c3ccc(C#N)cc3O)nn1)C2 (single isomer, unassigned)", "test-result": "5.00 to 6.30"}

# next molecule below
Give the reported pEC50 for Cn1cc(-c2cc(O)c(-c3ccc(O[C@@H]4CC5CC[C@H](N5)[C@@H]4F)nn3)cn2)cn1 (single isomer, unassigned) (system: mHTT protein).
5.00 to 6.30

* * *

Tested on: MDR1
measurement-protocol: MDCK-MDR1 permeability assay (BBB penetration potential)
Format: in vitro ADME
test-settings: dog, MDCK-MDR1, pH 7.4, MDCK-MDR1: Papp B-A
Reported Papp B→A at 120 min, 5 μM values follow for various compounds
Only the number, expressed in ×10⁻⁶ cm/s, is required.

{"compound": "Oc1cc(-c2ccccn2)ccc1-c1ccc(O[C@H]2C[C@@H]3CCC[C@@H](N3)[C@H]2F)nn1 (single isomer, unassigned) [77-ENT2]", "Papp B→A at 120 min, 5 μM, ×10⁻⁶ cm/s": 30.2}

What does the record list as Papp B→A at 120 min, 5 μM for COc1cc(-c2ccc(-c3ccc(O[C@@H]4C[C@H]5CCC[C@H](N5)[C@@H]4F)nn3)c(O)c2)cnn1 (single isomer, unassigned) [76-ENT1] ?
32.3

What does the record list as Papp B→A at 120 min, 5 μM for Cn1ccc(-c2ccc(-c3ccc(O[C@@H]4C[C@@]5(C)CCC[C@](C)(N5)[C@@H]4F)nn3)c(O)c2)cc1=O (single isomer, unassigned) [149-ENT2] ?
45.7

What does the record list as Papp B→A at 120 min, 5 μM for Cn1cc(-c2ccc(-c3ccc(O[C@@H]4C[C@H]5CCC[C@H](N5)[C@@H]4F)nn3)c(O)c2)cn1 (single isomer, unassigned) [1-ENT1] ?
37.9

What does the record list as Papp B→A at 120 min, 5 μM for Oc1cc(-c2cnn3ccccc23)ccc1-c1ccc(O[C@H]2C[C@@H]3CCC[C@@H](N3)[C@H]2F)nn1 (single isomer, unassigned) [91-ENT2] ?
10.5

What does the record list as Papp B→A at 120 min, 5 μM for CNC(=O)c1ccc2cc(-c3ccc(O[C@@H]4C[C@H]5CCC[C@H](N5)[C@@H]4F)nn3)c(O)cc2n1 (single isomer, unassigned) [136-ENT2] ?
52.1

What does the record list as Papp B→A at 120 min, 5 μM for Cn1ccc(=O)c2cc(-c3ccc(O[C@@H]4C[C@@]5(C)CCC[C@](C)(N5)[C@@H]4F)nn3)c(O)cc21 (single isomer, unassigned) [131-ENT2] ?
44.6

What does the record list as Papp B→A at 120 min, 5 μM for N#Cc1ccc(-c2ccc(O[C@H]3C[C@@H]4CCC[C@@H](N4)[C@H]3F)nn2)c(O)c1 (single isomer, unassigned) [110-ENT2] ?
56.9

What does the record list as Papp B→A at 120 min, 5 μM for Cn1ccc(-c2cc(O)c(-c3ccc(O[C@H]4C[C@@H]5CCC[C@@H](N5)[C@H]4F)nn3)cc2F)cc1=O (single isomer, unassigned) [58-ENT2] ?
55.1

What does the record list as Papp B→A at 120 min, 5 μM for Oc1cc(-n2ncc3ccccc32)ccc1-c1ccc(O[C@H]2C[C@@H]3CC[C@@H](N3)[C@H]2F)nn1 (single isomer, unassigned) [114-ENT2] ?
15.1

* * *

Tested on: MDR1
measurement-protocol: MDCK-MDR1 permeability assay (BBB penetration potential)
Assay type: in vitro ADME
test-settings: dog, MDCK-MDR1, pH 7.4, MDCK-MDR1: Papp B-A
Reported Papp B→A at 120 min, 5 μM values follow for various compounds
Only the number, expressed in ×10⁻⁶ cm/s, is required.

Known results for compounds:
{"compound": "C[C@]12CC[C@](C)(N1)[C@H](F)[C@H](Oc1ccc(-c3ccc(C#N)cc3O)nn1)C2 (single isomer, unassigned) [152-ENT1]", "assayed-system": "MDR1", "Papp B→A at 120 min, 5 μM, ×10⁻⁶ cm/s": 59.4}
{"compound": "Oc1cc(-c2cn[nH]c2)c(F)cc1-c1ccc(O[C@@H]2C[C@H]3CCC[C@H](N3)[C@@H]2F)nn1 (single isomer, unassigned) [56-ENT1]", "assayed-system": "MDR1", "Papp B→A at 120 min, 5 μM, ×10⁻⁶ cm/s": 39}
{"compound": "Cn1cc(-c2ccc(-c3ccc(O[C@H]4C[C@@H]5CCC[C@@H](N5)[C@H]4F)nn3)c(O)c2)c(F)n1 (single isomer, unassigned) [109-ENT2]", "assayed-system": "MDR1", "Papp B→A at 120 min, 5 μM, ×10⁻⁶ cm/s": 24.5}

What does the record list as Papp B→A at 120 min, 5 μM for C[C@]12CC[C@](C)(N1)[C@H](F)[C@H](Oc1ccc(-c3ccc(-n4cccn4)cc3O)nn1)C2 (single isomer, unassigned) [153-ENT1] ?
34.4

What does the record list as Papp B→A at 120 min, 5 μM for Oc1cc2ccncc2cc1-c1ccc(O[C@@H]2C[C@H]3CCC[C@H](N3)[C@@H]2F)nn1 (single isomer, unassigned) [81-ENT1] ?
22.8

What does the record list as Papp B→A at 120 min, 5 μM for Oc1cc(-c2nnco2)c(F)cc1-c1ccc(O[C@H]2C[C@@H]3CCC[C@@H](N3)[C@H]2F)nn1 (single isomer, unassigned) [143-ENT1] ?
55.7

What does the record list as Papp B→A at 120 min, 5 μM for Oc1cc(-c2cn[nH]c2)ccc1-c1ccc(O[C@H]2C[C@@H]3CCC[C@@H](N3)[C@@H]2F)nn1 (single isomer, unassigned) [41-ENT1] ?
34.7

What does the record list as Papp B→A at 120 min, 5 μM for Cn1cc(-c2cc(O)c(-c3ccc(O[C@@H]4C[C@H]5CCC[C@H](N5)[C@@H]4F)nn3)cc2Cl)cn1 (single isomer, unassigned) [120-ENT1] ?
29.7

What does the record list as Papp B→A at 120 min, 5 μM for Cn1ccc(-c2ccc(-c3ccc(O[C@H]4C[C@@H]5CCC[C@@H](N5)[C@H]4F)nn3)c(O)c2)n1 (single isomer, unassigned) [68-ENT2] ?
31.6

What does the record list as Papp B→A at 120 min, 5 μM for Oc1cc(-n2ccnc2)ccc1-c1ccc(O[C@H]2C[C@@H]3CC(F)(F)[C@H](C2)N3)nn1 (single isomer, unassigned) [51-ENT2] ?
46.7

What does the record list as Papp B→A at 120 min, 5 μM for Oc1cc(-c2cc[nH]n2)ccc1-c1ccc(O[C@H]2C[C@@H]3CCC[C@@H](N3)[C@H]2F)nn1 (single isomer, unassigned) [66-ENT2] ?
11.2

What does the record list as Papp B→A at 120 min, 5 μM for Cc1nc(-c2ccc(-c3ccc(O[C@@H]4C[C@H]5CCC[C@H](N5)[C@@H]4F)nn3)c(O)c2)co1 (single isomer, unassigned) [92-ENT1] ?
30.9
